studySystem: T1, monkey GFRα3 expressed with a C-terminal myc-myc-hexahistidine tag (monkey (Mf), UniProt O60609 32-374 (human entry), limits assumed)
T1 construct: also called MfGFRα3-mmh; MfGFRα3-mmH
T1 chain: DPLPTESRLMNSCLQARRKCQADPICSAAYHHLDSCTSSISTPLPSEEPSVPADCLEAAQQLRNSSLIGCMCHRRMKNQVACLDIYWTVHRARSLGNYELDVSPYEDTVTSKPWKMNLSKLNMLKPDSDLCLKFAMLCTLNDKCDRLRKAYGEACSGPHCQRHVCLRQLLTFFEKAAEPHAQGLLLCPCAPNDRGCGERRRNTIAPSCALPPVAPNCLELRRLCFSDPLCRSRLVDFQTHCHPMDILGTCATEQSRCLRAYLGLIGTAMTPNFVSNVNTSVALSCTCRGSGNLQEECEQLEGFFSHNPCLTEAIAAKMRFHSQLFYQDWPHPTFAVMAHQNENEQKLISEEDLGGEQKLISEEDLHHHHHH
assayInfo: SPR, Ab captured, 25C
readoutLabel: t1/2 (min)

binder="H4H2350P (antibody, human IgG4, V domains shown, human IgG4 Fc (H4H)) VH: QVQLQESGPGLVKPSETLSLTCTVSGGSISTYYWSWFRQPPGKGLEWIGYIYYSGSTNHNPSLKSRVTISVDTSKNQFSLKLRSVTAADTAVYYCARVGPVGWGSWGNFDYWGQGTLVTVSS VL: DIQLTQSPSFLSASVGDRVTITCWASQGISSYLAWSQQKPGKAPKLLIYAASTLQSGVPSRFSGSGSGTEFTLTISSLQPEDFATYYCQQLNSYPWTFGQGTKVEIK" outputunit=min measurednumber=104
binder="H4H2295S (antibody, human IgG4, V domains shown, human IgG4 Fc (H4H)) VH: EVQLVESGGGLVQAGGSLRLSCVASGFTFSSYAMSWVRQAPGKGLEWVSAISGSGGSTYSADSVKGRFTISRDNSKNTLYLQMNSLRAEDTAVYYCTKPSSYSSSNFYYGMDVWGQGTTVTVSS VL: DIQMTQSPSSVSASVGDRVTITCRASQGISSWLAWYQQKPGKAPKLLIYTASSLQSGVPSRFSGSGSRTDFTLTISSLQPEDFATYYCQQTNSLPLTFGPGTKVEIK" outputunit=min measurednumber=12
binder="H2aM2210N (antibody, mouse IgG2, V domains shown, chimeric, mouse IgG2 Fc (H2M/H2aM); also called H2M2210N) VH: EVQLLESGGGLVQPGGSLRVSCAASGFTFSTSAMSWVRQAPGKGLEWVSGISGIGGGSTYYADSVKGRFTISRDNSKNTLYLQMNSLRAEDTAVYFCAKFYKWNSYIFDLWGQGTMVTVSS VL: EIVLTQSPDTLSLSPGERATLSCRASQSVSSSYFAWYQQKPGQAPRLLMYSASSRATGIPDRFSGSGSGTDFSLTISRLEPEDFAVYYCQQYGRSLTFGGGTKVEIK" outputunit=min measurednumber=10
